- Tested on: Mus musculus
- ASSAY_METHOD_TEXT: Antagonism of pentylenetetrazole-induced convulsion in mice by oral administration.
- Format: functional
METRIC: ED50 (mg/kg)
Express your answer in mg/kg, writing the number without its unit.

The following molecules have reported results that may help.
CN(C(=O)CNC(=O)CN1CCC(O)(c2ccc(Cl)cc2)CC1)c1ccc(Cl)cc1C(=O)c1ccccc1Cl    27
CC(C)C(=O)NCC(=O)N(C)c1ccc(Cl)cc1C(=O)c1ccccc1Cl    6

Now for a further molecule.
Entry CC(NC(=O)CN)C(=O)N(C)c1ccc(Cl)cc1C(=O)c1ccccc1Cl (stereo not drawn) — recorded ED50 = 0.47

---

- System: Mus musculus
- ASSAY_METHOD_TEXT: Muscle relaxation activity using the rotarod performance test in mice by oral administration.
- Assay type: functional
Entries and their ED50
Express your answer in mg/kg, writing the number without its unit.

The following compounds have reported results that may help.
CN(C(=O)CNC(=O)CN)c1ccc([N+](=O)[O-])cc1C(=O)c1ccccc1Cl    10
CCC(=O)NCC(=O)N(C)c1ccc(Cl)cc1C(=O)c1ccccc1Cl    36
CCCC(=O)NCC(=O)N(C)c1ccc(Cl)cc1C(=O)c1ccccc1Cl    55.2
CN(C(=O)CNC(=O)CN)c1ccc([N+](=O)[O-])cc1C(=O)c1ccccc1    2.94

Entry `NCC(=O)NCC(=O)Nc1ccc([N+](=O)[O-])cc1C(=O)c1ccccc1` — recorded ED50 = 24.8

Entry `CN(C(=O)CNC(=O)CNCCc1ccccc1)c1ccc(Cl)cc1C(=O)c1ccccc1Cl` — recorded ED50 = 86

---

- Test system: Mus musculus
- ASSAY_METHOD_TEXT: Antagonism of pentylenetetrazole-induced convulsion in mice by oral administration.
- Format: functional
METRIC: log10 ED50 (log10 of the value in mg/kg)
// units: mg/kg (pre-log); metric: ED50; scale: log10

CC(C)NCC(=O)NCC(=O)N(C)c1ccc(Cl)cc1C(=O)c1ccccc1Cl    0.00
CC(=O)NCC(=O)N(C)c1ccc(Cl)cc1C(=O)c1ccccc1Cl    0.36
NCC(=O)NCC(=O)Nc1ccc([N+](=O)[O-])cc1C(=O)c1ccccc1    0.68
CN(C(=O)CNC(=O)Cc1ccccc1)c1ccc(Cl)cc1C(=O)c1ccccc1Cl    1.54

Entry `CC(=O)NCC(=O)Nc1ccc(Cl)cc1C(=O)c1ccccc1` — recorded log10 ED50 = 1.57

---

- System: Mus musculus
- ASSAY_METHOD_TEXT: Antagonism of pentylenetetrazole-induced convulsion in mice by oral administration.
- Type: functional
METRIC: ED50 (mg/kg)
Express your answer in mg/kg, writing the number without its unit.

CN(C(=O)CNC(=O)c1ccccc1)c1ccc(Cl)cc1C(=O)c1ccccc1    7.6
NCC(=O)NCC(=O)Nc1ccc([N+](=O)[O-])cc1C(=O)c1ccccc1Cl    2.64
CCCCC(=O)NCC(=O)N(C)c1ccc(Cl)cc1C(=O)c1ccccc1Cl    1.3
CN(C)CC(=O)NCC(=O)N(C)c1ccc(Cl)cc1C(=O)c1ccccc1Cl    2.6
CN(C(=O)CNC(=O)CN1CCOCC1)c1ccc(Cl)cc1C(=O)c1ccccc1Cl    14
CCCC(=O)NCC(=O)N(C)c1ccc(Cl)cc1C(=O)c1ccccc1Cl    0.98

Entry `CN(C(=O)CNC(=O)CN1CCCCC1)c1ccc(Cl)cc1C(=O)c1ccccc1Cl` — recorded ED50 = 7.5

Entry `CCCCCC(=O)NCC(=O)N(C)c1ccc(Cl)cc1C(=O)c1ccccc1Cl` — recorded ED50 = 1.9

Entry `CCN(CC)CC(=O)NCC(=O)N(C)c1ccc(Cl)cc1C(=O)c1ccccc1Cl` — recorded ED50 = 2.2

Entry CN(C(=O)CNC(=O)CN)c1ccc(Cl)cc1C(=O)c1ccccc1Cl [LORZAFONE ANHYDROUS] — recorded ED50 = 0.58

Entry NC(C(=O)NCC(=O)Nc1ccc(Cl)cc1C(=O)c1ccccc1)c1ccccc1 (stereo not given) — recorded ED50 = 28

Entry `O=C1CN=C(c2ccccc2)c2cc([N+](=O)[O-])ccc2N1` — recorded ED50 = 0.23

Entry `CN(C(=O)CNC(=O)c1ccccc1)c1ccc(Cl)cc1C(=O)c1ccccc1Cl` — recorded ED50 = 2.9

Entry `CN(C(=O)CNC(=O)CN1CCN(c2ccccc2)CC1)c1ccc(Cl)cc1C(=O)c1ccccc1Cl` — recorded ED50 = 75

Entry `CN(C(=O)CNC(=O)CNCCc1ccccc1)c1ccc(Cl)cc1C(=O)c1ccccc1Cl` — recorded ED50 = 1.6

Entry `CN1CCN(CC(=O)NCC(=O)N(C)c2ccc(Cl)cc2C(=O)c2ccccc2Cl)CC1` — recorded ED50 = 59

Entry `CCCCCCC(=O)NCC(=O)N(C)c1ccc(Cl)cc1C(=O)c1ccccc1Cl` — recorded ED50 = 1.9

Entry `CCC(=O)NCC(=O)N(C)c1ccc(Cl)cc1C(=O)c1ccccc1Cl` — recorded ED50 = 1.4
